test: Inhibition over 48 hr of BAL strain HIV infrction of HeLa Magi cells expressing CCR5
Result type: IC50
Give the figure together with its unit, number first.

Example molecules with recorded IC50:
Answer with the recorded IC50 of `CCCN(c1ccccn1)C1CCN(C[C@H]2CN(C(=O)C3CCC3)C[C@@H]2c2ccccc2)CC1` only.
300 nM

Give a short answer stating reported IC50 for `CCCN(c1ccccn1)C1CCN(C[C@H]2CN(C(=O)N3CCCC3)C[C@@H]2c2ccccc2)CC1` .
300 nM

Using the record for `CCCN(c1ccccn1)C1CCN(C[C@H]2CN(C(=O)c3ccccc3Cl)C[C@@H]2c2ccccc2)CC1` , state its measured IC50.
300 nM

Look up IC50 for the entries below, preserving their order.
1. O=C(C1CCCCC1)N1C[C@H](CN2CCC(N(CC3CC3)c3ccccn3)CC2)[C@@H](c2ccccc2)C1
2. CCCN(c1ccccn1)C1CCN(C[C@H]2CN(C(=O)C3CCCCC3)C[C@@H]2c2ccccc2)CC1
3. CCCN(c1ccncn1)C1CCN(C[C@H]2CN([C@H](CC3CCC3)C(=O)O)C[C@@H]2c2cccc(F)c2)CC1

1: 33 nM; 2: 100 nM; 3: 33 nM

Hi! Can you tell me IC50 for each of these molecules?
1. CCCN(c1ncccn1)C1CCN(C[C@H]2CN([C@@H](C(=O)O)C3CCCCC3)C[C@@H]2c2ccccc2)CC1
2. CCCN(c1ccccn1)C1CCN(C[C@H]2CN([C@@H](C(=O)O)C3CCCCC3)C[C@@H]2c2ccccc2)CC1

1. 33 nM
2. 100 nM
